# TARGET UNDER TEST: Estrogen receptor beta (Homo sapiens) (UniProt Q92731)
# Sequence (Q92731 whole entry, looked up): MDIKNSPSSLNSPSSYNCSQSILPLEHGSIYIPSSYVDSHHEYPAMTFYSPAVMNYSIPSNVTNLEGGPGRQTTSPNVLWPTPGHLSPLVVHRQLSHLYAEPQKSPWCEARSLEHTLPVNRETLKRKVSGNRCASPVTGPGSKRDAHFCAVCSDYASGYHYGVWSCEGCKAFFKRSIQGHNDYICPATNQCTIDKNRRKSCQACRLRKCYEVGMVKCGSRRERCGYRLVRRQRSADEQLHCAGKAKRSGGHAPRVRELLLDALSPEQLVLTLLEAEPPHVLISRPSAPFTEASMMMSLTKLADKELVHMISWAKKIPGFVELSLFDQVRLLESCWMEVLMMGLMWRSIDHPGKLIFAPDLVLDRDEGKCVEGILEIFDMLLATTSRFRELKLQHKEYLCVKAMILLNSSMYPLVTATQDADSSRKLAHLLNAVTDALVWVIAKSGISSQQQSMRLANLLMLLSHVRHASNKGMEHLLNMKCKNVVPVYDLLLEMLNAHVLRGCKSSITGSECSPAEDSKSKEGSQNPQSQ
# MEASUREMENT PROTOCOL: qHTS assay to identify small molecule agonists of the estrogen receptor beta (ER-beta) signaling pathway (AID 1259377)
# CONDITION: ER-beta-UAS-bla HEK293T, beta-lactamase FRET ratio, 16 h; series mostly up to 92.4 µM
Results filed as inconclusive are left out. The source made the active and inactive calls. Calls follow the shape of the dose curve; as a rule, active = well fitted activation curve with a large enough effect in the signal ratio in the repeat runs (not every such curve was filed as active); inconclusive = weak or mixed curves, or effect the other way; inactive = flat fitted curve, though single readings scatter; the % refers to the signal ratio.
Select the correct class. Options are active, inactive and nothing else.

The following compounds have reported results that may help.
| COMPOUND | CLASS NAME |
| --- | --- |
| FC(F)C(F)(F)OCC(Cn1cncn1)c1ccc(Cl)cc1Cl (stereo not drawn) | inactive |
| C[N+]1(C)[C@@H]2CC[C@H]1CC(OC(=O)C(CO)c1ccccc1)C2 (stereo partly drawn) | inactive |
| Oc1cc(Cl)c(Cl)c(Cl)c1Cl | inactive |
| Clc1ccc(C(Cl)(Cl)Cl)cc1Cl | inactive |
| Cc1c([N+](=O)[O-])cc2c(c1[N+](=O)[O-])C(C)(C)CC2(C)C | inactive |

In: Could you please tell me the result logged for COC(=O)C(C)N(C(=O)c1ccco1)c1c(C)cccc1C (stereo not drawn) in this assay?
Out: inactive

In: Could you please tell me the result logged for "O=NN(CCO)CCO" in this assay?
Out: inactive

In: Could you please tell me the result logged for "c1ccc2nc(N3CCNCC3)ccc2c1" in this assay?
Out: inactive

In: Could you please tell me the result logged for "Nc1cc(Cl)ccc1Cl" in this assay?
Out: inactive

In: Could you please tell me the result logged for CCNc1nc(NC(C)C(C)C)nc(SC)n1 (stereo not drawn) in this assay?
Out: inactive

In: Could you please tell me the result logged for "Brc1ccc(Oc2ccc(Br)cc2Br)c(Br)c1" in this assay?
Out: inactive

In: Could you please tell me the result logged for "O=[N+]([O-])c1ccc(Cl)c(Cl)c1Cl" in this assay?
Out: inactive

In: Could you please tell me the result logged for CCOP(=S)(OCC)SC(CCl)N1C(=O)c2ccccc2C1=O (stereo not drawn) in this assay?
Out: inactive

In: Could you please tell me the result logged for "O=C(Nc1ccc(F)cc1F)c1cccnc1Oc1cccc(C(F)(F)F)c1" in this assay?
Out: inactive

In: Could you please tell me the result logged for "Cc1cc2c3c(c1)C(c1ccccc1)=N[C@@H](NC(=O)c1ccncc1)C(=O)N3CC2" in this assay?
Out: inactive

In: Could you please tell me the result logged for "C[C@]12CC[C@H]3[C@@H](CCC4=CC(=O)CC[C@@H]43)[C@@H]1CC[C@@H]2OC(=O)CCc1ccco1" in this assay?
Out: active

In: Could you please tell me the result logged for CC(C)[C@@H](Nc1ccc(C(F)(F)F)cc1Cl)C(=O)OC(C#N)c1cccc(Oc2ccccc2)c1 (stereo partly drawn) in this assay?
Out: inactive

In: Could you please tell me the result logged for "N#Cc1c2ccccc2cc2ccccc12" in this assay?
Out: active
